assay-name: qHTS assay to identify small molecule agonists of the sonic hedgehog signaling (Shh) pathway - cell viability counter screen (AID 1259366); note: nearly all actives have a fitted effect of over 50% in size
conditions: NIH/3T3 Gli1-Luc viability, CellTiter-Fluor, 24 h; series mostly up to 92.4 µM
Inconclusive results are not listed. The source made the active and inactive calls. Calls come from the whole dose curve; as a rule, active = well fitted cell-killing curve with a large enough effect in the repeat runs; inconclusive = weak or mixed curves, or effect the other way; inactive = flat fitted curve, though single readings scatter.
Choose one outcome from this list and give only that: True = active, False = inactive

Please review the entries below; each comes with its answer.
molecule	label
Cc1nnc2n1-c1sc(CCC(=O)N3CCOCC3)cc1C(c1ccccc1Cl)=NC2	False
CCN(CC)C(C)C(=O)c1ccccc1 (stereo not given)	False
OC(c1ccc(F)cc1)(c1cncnc1)c1ccccc1Cl (stereo not given)	False
CC1(C)CON(Cc2ccccc2Cl)C1=O	False
CC1(C)COP(Oc2ccccc2)OC1	False
CCOP(=O)(N=C1SCCS1)OCC	False

I'd appreciate the recorded outcome for `CN(C)CCc1ccc(O)cc1` from this test.
False

I'd appreciate the recorded outcome for `COC(=O)C1=CCCN(C)C1` from this test.
False

I'd appreciate the recorded outcome for `CCOc1nc(C(Cl)(Cl)Cl)ns1` from this test.
False
